// data source = ChEMBL document CHEMBL5728559

target: UniProt Q99500; assay: Receptor [35S] GTPgammaS Binding Assays: Compounds were loaded in a 384 Falcon v-bottom plate (0.5 μL/well in a 11 point, 3-fold dilution). Membranes prepared from S1P1/CHO cells or EDG3-Gal5-bla HEK293T cells (EDG3 equivalent S1P3) were added to the compound plate (40 μL/well, final protein 3 μg/well) with MULTIDROP®. [35S]GTP (1250 Ci/mmol, Perkin Elmer) was diluted in assay buffer: 20 mM HEPES, pH7.5, 10 mM MgCl2, 150 mM NaCl, 1 mM EGTA(ethylene glycol tetraacetic acid), 1 mM DTT (dithiothreitol), 10 μM GDP, 0.1% fatty acid free BSA, and 10 μg/ml Saponin to 0.4 nM. 40 μL of the [35S] GTP solution was added to the compound plate with a final concentration of 0.2 nM. The reaction was kept at room temperature for 45 min. At the end of incubation, all the mixtures in the compound plate were transferred to Millipore 384-well FB filter plates via the VELOCITY11® Vprep liquid handler. The filter plate was washed with water 4 times by using the manifold Embla plate washer and dried at 60° C. for 45 min. MicroScint 20 scintillation fluid (30 μL) was added to each well for counting on the Packard TOPCOUNT®. EC50 is defined as the agonist concentration that corresponds to 50% of the Ymax (maximal response) obtained for each individual compound tested.A smaller value for GTPγS S1P1 EC50 value indicated greater activity for the compound in the GTPγS S1P1 binding assay. Thus the compounds of the present invention may be used in treating, preventing, or curing various S1P1 receptor-related conditions. The compounds have potential use in treating, preventing, or curing autoimmune and inflammatory diseases such as multiple sclerosis, rheumatoid arthritis, inflammatory bowel disease, lupus, psoriasis, or minimizing or reducing rejection of transplanted organs.
Sequence (Q99500 whole entry): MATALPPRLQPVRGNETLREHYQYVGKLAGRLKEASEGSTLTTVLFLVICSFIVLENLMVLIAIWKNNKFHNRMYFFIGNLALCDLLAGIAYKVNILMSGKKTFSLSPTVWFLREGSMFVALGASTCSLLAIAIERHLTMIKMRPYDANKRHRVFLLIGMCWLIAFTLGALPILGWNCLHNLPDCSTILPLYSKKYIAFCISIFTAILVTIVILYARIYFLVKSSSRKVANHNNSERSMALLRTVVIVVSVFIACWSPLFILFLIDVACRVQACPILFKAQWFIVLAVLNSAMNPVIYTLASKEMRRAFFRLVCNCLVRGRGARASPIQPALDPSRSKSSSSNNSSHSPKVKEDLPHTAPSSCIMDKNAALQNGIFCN
pEC50: −log10 of the molar value.
Test readout: pEC50

Answer with the recorded pEC50 of CCCCCCCCc1cc(C)c(N2CCC(N)(COP(=O)(O)O)C2=O)c(C)c1 (stereo unspecified) only. < 4.22
